# targetEntity: STING (Homo sapiens, UniProt Q86WV6, G230A/H232R/R293Q/R71H)
# Sequence (Q86WV6 whole entry R71H/G230A/H232R/R293Q): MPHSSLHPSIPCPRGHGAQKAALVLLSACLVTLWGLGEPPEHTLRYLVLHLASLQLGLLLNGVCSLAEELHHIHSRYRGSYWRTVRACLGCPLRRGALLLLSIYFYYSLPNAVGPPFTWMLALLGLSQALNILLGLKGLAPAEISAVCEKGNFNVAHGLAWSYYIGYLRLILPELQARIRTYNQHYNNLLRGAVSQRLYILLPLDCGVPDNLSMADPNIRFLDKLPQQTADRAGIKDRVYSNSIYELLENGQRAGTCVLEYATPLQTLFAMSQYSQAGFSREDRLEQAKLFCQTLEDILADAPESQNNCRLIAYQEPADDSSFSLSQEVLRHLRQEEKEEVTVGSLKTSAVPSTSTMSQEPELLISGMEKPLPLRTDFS
# assay: STING reporter assay: THP1-Dual KO-IFNAR2 cells stimulated with 2′3′cGAMP, luciferase reporter activity
# Assay type: cell-based
# conditionDetails: 15 μM 2′3′cGAMP, 24h, class symbols
pEC50: −log10 of the molar value.
propertyName: pEC50

molecule: FC(F)(F)c1cc(Nc2ccc3cc[nH]c3c2)nc(Nc2ccc3cc[nH]c3c2)c1
propertyName: pEC50
reportedMeasurement: 6.00 to 6.70
//
molecule: O=C(NCc1cc(Cl)cc(C(F)(F)F)c1)Nc1ccc2cc[nH]c2c1
propertyName: pEC50
reportedMeasurement: 6.00 to 6.70
//
molecule: O=C(Nc1ccc(C2CC(F)(F)C2)c(F)c1)Nc1cc(Cl)c2cc[nH]c2c1
propertyName: pEC50
reportedMeasurement: 6.70 to 7.40
//
molecule: CCCCCNC(=O)Nc1ccc2cc[nH]c2c1
propertyName: pEC50
reportedMeasurement: 5.30 to 6.00
//
molecule: O=C(Nc1cc(F)cc(C(F)(F)F)c1)Nc1ccc2c(F)c[nH]c2c1
propertyName: pEC50
reportedMeasurement: 6.00 to 6.70
//
molecule: Cc1cc(Nc2ccc3cc[nH]c3c2)nc(C(F)(F)F)c1
propertyName: pEC50
reportedMeasurement: 6.00 to 6.70
//
molecule: O=C(Nc1cccc(C(F)(F)F)c1)Nc1ccc2[nH]ccc2c1
propertyName: pEC50
reportedMeasurement: 4.00 to 5.30
//
molecule: Fc1ccc2nc(Nc3ccc4cc[nH]c4c3)ccc2c1C(F)(F)F
propertyName: pEC50
reportedMeasurement: 6.00 to 6.70
//
molecule: c1cc2ccc(Nc3ccc4c(n3)CCCC4)cc2[nH]1
propertyName: pEC50
reportedMeasurement: 4.00 to 5.30
//
molecule: C#Cc1ccc(NC(=O)Nc2ccc3[nH]ccc3c2)cc1
propertyName: pEC50
reportedMeasurement: 4.00 to 5.30
//
molecule: O=C(NCCc1c(F)cccc1Cl)Nc1ccc2cc[nH]c2c1
propertyName: pEC50
reportedMeasurement: 5.30 to 6.00
//
molecule: Cc1ccc2ccc(Nc3ccc4cc[nH]c4c3)nc2c1
propertyName: pEC50
reportedMeasurement: 5.30 to 6.00
//
molecule: O=C(NCCc1cccc(Cl)c1)Nc1ccc2cc[nH]c2c1
propertyName: pEC50
reportedMeasurement: 5.30 to 6.00
//
molecule: O=C(Nc1cc(F)cc(C(F)(F)F)c1)Nc1ccc2cc[nH]c2c1
propertyName: pEC50
reportedMeasurement: 6.70 to 7.40
//
molecule: Cc1cc(NC(=O)Nc2cc(Cl)c3cc[nH]c3c2)cnc1N1CCC(F)(F)CC1
propertyName: pEC50
reportedMeasurement: 6.00 to 6.70
//
molecule: FC(F)(F)Oc1ccc(Nc2ccc3cc[nH]c3c2)nc1
propertyName: pEC50
reportedMeasurement: 4.00 to 5.30
//
molecule: FC(F)(F)c1cccc(Nc2ccc3cc[nH]c3c2)n1
propertyName: pEC50
reportedMeasurement: 4.00 to 5.30
//
molecule: FC(F)(F)c1cc(Cl)c2ccc(Nc3ccc4cc[nH]c4c3)nc2c1
propertyName: pEC50
reportedMeasurement: 6.00 to 6.70
//
molecule: CCCCc1ccc(NC(=O)Nc2ccc3[nH]ccc3c2)cc1
propertyName: pEC50
reportedMeasurement: 5.30 to 6.00
//
molecule: O=C(Nc1cnc(N2CC(F)(F)C2)c(Cl)c1)Nc1ccc2c(F)c[nH]c2c1
propertyName: pEC50
reportedMeasurement: 6.00 to 6.70
//
molecule: O=C(Nc1ccc(C(F)(F)F)cc1)Nc1ccc2cc[nH]c2c1
propertyName: pEC50
reportedMeasurement: 6.70 to 7.40
//
molecule: FC(F)(F)c1ccc2cnc(Nc3ccc4cc[nH]c4c3)cc2c1
propertyName: pEC50
reportedMeasurement: 5.30 to 6.00
//
molecule: O=C(Nc1ccc2cc[nH]c2c1)Nc1ccc(C(F)(F)F)cn1
propertyName: pEC50
reportedMeasurement: 6.00 to 6.70
//
molecule: O=C(NCc1ccc(OCC(F)(F)F)nc1)Nc1ccc2cc[nH]c2c1
propertyName: pEC50
reportedMeasurement: 5.30 to 6.00
//
molecule: Cc1cccc(CNC(=O)Nc2ccc3cc[nH]c3c2)c1
propertyName: pEC50
reportedMeasurement: 4.00 to 5.30
//
molecule: COc1ccc2c(Cl)cc(Nc3ccc4cc[nH]c4c3)nc2c1
propertyName: pEC50
reportedMeasurement: 5.30 to 6.00
//
molecule: CC(Cc1cccc(C(F)(F)F)c1)NC(=O)Nc1ccc2cc[nH]c2c1 (stereo not shown)
propertyName: pEC50
reportedMeasurement: 5.30 to 6.00
//
molecule: C[C@@H](NC(=O)Nc1cc(Cl)c2cc[nH]c2c1)c1cc(Cl)cc(C(F)(F)F)c1
propertyName: pEC50
reportedMeasurement: 5.30 to 6.00
//
molecule: Brc1ccc2ccc(Nc3ccc4cc[nH]c4c3)nc2c1
propertyName: pEC50
reportedMeasurement: 6.00 to 6.70
//
molecule: O=C(Nc1ccc(C(F)(F)F)cc1)Nc1ccc2[nH]ccc2c1
propertyName: pEC50
reportedMeasurement: 5.30 to 6.00
//
molecule: CCOc1ccc(Nc2ccc3cc[nH]c3c2)nc1C
propertyName: pEC50
reportedMeasurement: 4.00 to 5.30
//
molecule: O=C(Nc1ccc(Cl)c(F)c1)Nc1ccc2cc[nH]c2c1
propertyName: pEC50
reportedMeasurement: 6.00 to 6.70
//
molecule: CC(C)CCNC(=O)Nc1ccc2cc[nH]c2c1
propertyName: pEC50
reportedMeasurement: 5.30 to 6.00
//
molecule: O=C(Nc1ccc(C(F)(F)F)cc1)Nc1cc(C(=O)OC2CCCC2)c2cc[nH]c2c1
propertyName: pEC50
reportedMeasurement: 5.30 to 6.00
//
molecule: CNS(=O)(=O)c1c[nH]c2cc(NC(=O)Nc3ccc(C(F)(F)F)cc3)ccc12
propertyName: pEC50
reportedMeasurement: 4.00 to 5.30
//
molecule: CC(C)c1ccc(-c2nnc(NC(=O)Nc3ccc4[nH]ccc4c3)s2)cc1
propertyName: pEC50
reportedMeasurement: 4.00 to 5.30
//
molecule: FC(F)(F)c1ccc2ccc(Nc3cc(Cl)c4cc[nH]c4c3)nc2c1
propertyName: pEC50
reportedMeasurement: 6.00 to 6.70
